Source of measurements: ChEMBL document CHEMBL4229543

- test_name: Solubility in PG/EtOH (96%) at 30 mg/mL after 24 hrs by UV-spectrometric method
- Type: physicochemical
- measurement_setup: PG/EtOH (96%)
Short version: solubility at 24 h at least 20 mM is 1 (yes), less is 0 (no).

Does `CC(C)(Nc1c(NCCCCCC(=O)NO)c(=O)c1=O)c1ccccc1` have a reported solubility at 24 h of at least 20 mM?
1 (yes)

Does CC(C)C(CCCCC(=O)NO)Nc1c(Nc2ccc(C(F)(F)F)cc2)c(=O)c1=O (racemic) have a reported solubility at 24 h of at least 20 mM?
0 (no)

Does `C[C@@H](Nc1c(NCCCCCC(=O)NO)c(=O)c1=O)c1ccccc1` have a reported solubility at 24 h of at least 20 mM?
1 (yes)

Does `O=C(CCCCCNc1c(Nc2ccccc2)c(=O)c1=O)NO` have a reported solubility at 24 h of at least 20 mM?
0 (no)

Does `Cc1cccc([C@@H](C)Nc2c(NCCCCCC(=O)NO)c(=O)c2=O)c1` have a reported solubility at 24 h of at least 20 mM?
1 (yes)

Does Cn1cc(CNCC2CCN(c3ncc(C(=O)NO)cn3)CC2)c2ccccc21 [QUISINOSTAT] have a reported solubility at 24 h of at least 20 mM?
0 (no)

Does `Cc1ccccc1Nc1c(NCCCCCC(=O)NO)c(=O)c1=O` have a reported solubility at 24 h of at least 20 mM?
0 (no)

Does `COc1ccc(Nc2c(NCCCCCC(=O)NO)c(=O)c2=O)cc1` have a reported solubility at 24 h of at least 20 mM?
0 (no)

---

- test_name: Solubility in pH 7.4 phosphate buffer solution at 100 uM after 24 hrs by HPLC method
- Assay type: physicochemical
- measurement_setup: phosphate buffer, pH 7.4
Short version: solubility at 24 h, 100 µM at least 80 µM is Satisfied, less is Not satisfied.

Does `COc1ccc(Nc2c(NCCCCCC(=O)NO)c(=O)c2=O)cc1` have a reported solubility at 24 h, 100 µM of at least 80 µM?
Not satisfied

Does `C[C@@H](CCCCC(=O)NO)Nc1c(Nc2ccc(N(C)C)cc2)c(=O)c1=O` have a reported solubility at 24 h, 100 µM of at least 80 µM?
Satisfied

Does `Cc1ccc(Nc2c(NCCCCCC(=O)NO)c(=O)c2=O)cc1` have a reported solubility at 24 h, 100 µM of at least 80 µM?
Not satisfied

Does CC(C)C(CCCCC(=O)NO)Nc1c(Nc2ccc(C(F)(F)F)cc2)c(=O)c1=O (racemic) have a reported solubility at 24 h, 100 µM of at least 80 µM?
Not satisfied

Does `CC[C@H](Nc1c(NCCCCCC(=O)NO)c(=O)c1=O)c1ccccc1` have a reported solubility at 24 h, 100 µM of at least 80 µM?
Not satisfied

Does `C[C@H](Nc1c(NCCCCCC(=O)NO)c(=O)c1=O)c1ccccc1` have a reported solubility at 24 h, 100 µM of at least 80 µM?
Not satisfied

Does `O=C(CCCCCNc1c(NC2CCCCC2)c(=O)c1=O)NO` have a reported solubility at 24 h, 100 µM of at least 80 µM?
Satisfied

Does `Cc1ccc([C@H](C)Nc2c(NCCCCCC(=O)NO)c(=O)c2=O)cc1` have a reported solubility at 24 h, 100 µM of at least 80 µM?
Not satisfied

Does `COc1ccc(Nc2c(NC(C)(C)CCCCC(=O)NO)c(=O)c2=O)cc1` have a reported solubility at 24 h, 100 µM of at least 80 µM?
Satisfied
